system under test: human type 1 glycine transporter (GlyT1) (Homo sapiens, UniProt P48067)
Construct: T98G cells (glioma cells) expressing human type 1 glycine transporter (GlyT1) were used; endogenous in cells; host or cells: T98G cells (human glioma cells)
test summary: Glycine uptake inhibition experiment ([3H] glycine uptake in T98G cells expressing GlyT1)
Type: cell-based
experimental setup: glycine uptake inhibition
So basically: is IC50 under 90 nM? Then Satisfied. Not under? Then Not satisfied.

Example entries and their recorded answers appear below.
| molecule | assigned label |
| --- | --- |
| C[C@H](O)c1cccc2c1C(F)(F)C(=O)N2Cc1cncc(-n2cncn2)c1 | Not satisfied |
| O=C1N(Cc2cccc(Cl)n2)c2cccc(C(O)C(F)F)c2C1(F)F (single isomer, unassigned) [Compound 126] | Satisfied |
| CC(O)c1cccc2c1C(F)(F)C(=O)N2Cc1cccc(Cl)n1 (single isomer, unassigned) [Compound 5] | Not satisfied |
| O=C1N(Cc2cc(F)ccn2)c2cccc(C(O)C(F)F)c2C1(F)F (single isomer, unassigned) | Not satisfied |
| N#Cc1cccc(CN2C(=O)C(F)(F)c3c(C(O)C(F)(F)F)cccc32)n1 (single isomer, unassigned) [Compound 19] | Satisfied |

API: the following record is the query input.
Q: Here's an entry: C[C@H](O)c1cccc2c1C(F)(F)C(=O)N2Cc1nc2cc(F)ccc2c(=O)n1C . Is its IC50 below 90 nM?
Ans: Satisfied
